The reported measurements were obtained from ChEMBL document CHEMBL1955790.

- Tested on: HCT-116
- Test Summary: Cytotoxicity against human HCT116 cells after 48 hrs by WST-8 assay
- Type: functional, cell-based
- Study Conditions: HCT-116, 48 h
Measure: IC50 (µM)
Express the result in µM but write the number alone.

I'd like to know its IC50. The compound in question is "CC(C)CC(=O)c1c(O)c(C(=O)CC(C)C)c(O)c(C(c2cccs2)c2c(O)c(C(=O)CC(C)C)c(O)c(C(=O)CC(C)C)c2O)c1O"
8.9

Entry "CC(C)CC(=O)c1c(O)c(C=O)c(O)c(C(c2cccnc2)c2c(O)c(C=O)c(O)c(C(=O)CC(C)C)c2O)c1O" : reported IC50 = ?
5.5

Please give the measured IC50 for this compound: "CC(C)CC(=O)c1c(O)c(C(=O)CC(C)C)c(O)c(C(c2ccc(-c3ccccc3)cc2)c2c(O)c(C(=O)CC(C)C)c(O)c(C(=O)CC(C)C)c2O)c1O"
8.6

Looking for the measured IC50 of "CC(C)CC(=O)c1c(O)c(C(=O)CC(C)C)c(O)c(C(c2ccc3c(c2)OCO3)c2c(O)c(C(=O)CC(C)C)c(O)c(C(=O)CC(C)C)c2O)c1O" , can you help?
7.1

So what does the record say about IC50 for "CC(C)CC(=O)c1c(O)c(C=O)c(O)c(C(c2ccc3c(c2)Cc2ccccc2-3)c2c(O)c(C=O)c(O)c(C(=O)CC(C)C)c2O)c1O" ?
9.4

For the compound shown here, "CC(C)CC(=O)c1c(O)c(C=O)c(O)c(C(c2ccc3c(c2)OCO3)c2c(O)c(C=O)c(O)c(C(=O)CC(C)C)c2O)c1O" , give the reported IC50.
9.5

Looking for the measured IC50 of "CC(=O)c1c(O)c(C(C)=O)c(O)c(C(c2cccs2)c2c(O)c(C(C)=O)c(O)c(C(C)=O)c2O)c1O" , can you help?
9.9

###

- Tested on: HCT-116
- Test Summary: Growth inhibition of human HCT116 cells at 10 uM after 48 hrs by WST-8 assay
- Assay type: functional
- Study Conditions: HCT-116, 48 h, read-out: GI
Would you kindly list inhibition of growth at 10 µM for each of these molecules?
Your answer should be a number followed by the unit of measure.

Which inhibition of growth at 10 µM is listed for "CC(C)CC(=O)c1c(O)c(C(=O)CC(C)C)c(O)c(C(c2ccc(-c3ccccc3)cc2)c2c(O)c(C(=O)CC(C)C)c(O)c(C(=O)CC(C)C)c2O)c1O" ?
55%

Look up inhibition of growth at 10 µM for this molecule: "CC(C)CC(=O)c1c(O)c(C=O)c(O)c(Cc2c(O)c(C=O)c(O)c(C(=O)CC(C)C)c2O)c1O"
9%

I have this molecule here, "CC(C)CC(=O)c1c(O)c(C(=O)CC(C)C)c(O)c(C(C)c2c(O)c(C(=O)CC(C)C)c(O)c(C(=O)CC(C)C)c2O)c1O" , and I need its recorded inhibition of growth at 10 µM.
25%

###

Please provide measured inhibition of growth at 10 µM for the entries that follow.
- Tested on: HCT-116
- Test Summary: Growth inhibition of human HCT116 cells at 10 uM after 48 hrs by WST-8 assay
- Format: functional
- Study Conditions: HCT-116, 48 h, read-out: GI
Output spec: scalar in %, unitless text.

Reported inhibition of growth at 10 µM for "CC(C)CC(=O)c1c(O)c(C(=O)CC(C)C)c(O)c(C(c2ccc3c(c2)Cc2ccccc2-3)c2c(O)c(C(=O)CC(C)C)c(O)c(C(=O)CC(C)C)c2O)c1O" : what is it?
0

Param item = "CC(=O)c1c(O)c(C(C)=O)c(O)c(C(c2ccccn2)c2c(O)c(C(C)=O)c(O)c(C(C)=O)c2O)c1O" ; retrieve measured inhibition of growth at 10 µM.
11

GET /values?readout=inhibition of growth at 10 µM&item= "CC(C)CC(=O)c1c(O)c(C(=O)CC(C)C)c(O)c(C(c2cccs2)c2c(O)c(C(=O)CC(C)C)c(O)c(C(=O)CC(C)C)c2O)c1O"
57

Fill blank: measured inhibition of growth at 10 µM of the compound "CC(C)CC(=O)c1c(O)cc(O)c(C=O)c1O" is ____.
57
